Data credit: patent US5132432A

Assay: Comparison of spectral properties of reactive dyes, Table 1
Type: physicochemical
Details: full bandwidth at half peak height
Excerpt: A number of dyes have been proposed in the literature that can be excited and detected at wavelengths less than 500 nm. Several chemically reactive fluorophores that can be excited in the near ultraviolet and short wavelength visible region of the spectrum have been described. […]
measured-parameter: Emission Bandwidth (nm)
# value in nm; strip the unit string

smiles | unit-of-measurement | reported
NNC(=O)COc1cc(S(=O)(=O)[O-])c2ccc3c(S(=O)(=O)[O-])cc(S(=O)(=O)[O-])c4ccc1c2c43.[Na+].[Na+].[Na+] | nm | 50

Query: Emission Bandwidth; subject: O=S(=O)(O)c1cc(N=C=S)c2ccc3c(S(=O)(=O)O)cc(S(=O)(=O)O)c4ccc1c2c34
78

Query: Emission Bandwidth; subject: Cc1c(CC(=O)O)c(=O)oc2cc(O)ccc12
58

Query: Emission Bandwidth; subject: Cc1c(CC(=O)O)c(=O)oc2cc(N)ccc12
57

* * *

assay: Comparison of spectral properties of reactive dyes, Table 1; type: physicochemical; conditions: at first maximum
Each entry below carries its reported ε.

Below, each entry is followed by its recorded ε result.
smiles | ε
O=S(=O)(O)c1cc(N=C=S)c2ccc3c(S(=O)(=O)O)cc(S(=O)(=O)O)c4ccc1c2c34 | 25600 M⁻¹ cm⁻¹
NNC(=O)COc1cc(S(=O)(=O)[O-])c2ccc3c(S(=O)(=O)[O-])cc(S(=O)(=O)[O-])c4ccc1c2c43.[Na+].[Na+].[Na+] | 28000 M⁻¹ cm⁻¹
Cc1c(CC(=O)O)c(=O)oc2cc(N)ccc12 | 15200 M⁻¹ cm⁻¹
CN(C)c1cccc2c(S(=O)(=O)O)cccc12 | 4500 M⁻¹ cm⁻¹
Cc1c(CC(=O)O)c(=O)oc2cc(O)ccc12 | 19100 M⁻¹ cm⁻¹

Kindly consider the entry below.
Query: ε; subject: O=C(O)CCCc1ccc2ccc3cccc4ccc1c2c34
45100 M⁻¹ cm⁻¹

* * *

Each entry below carries its reported % Emission at 514 nm.
experiment: Comparison of spectral properties of reactive dyes, Table 1; format: physicochemical; settings: percent of maximum emission at 514 nm

Query: % Emission at 514 nm; subject: O=S(=O)(O)c1cc(N=C=S)c2ccc3c(S(=O)(=O)O)cc(S(=O)(=O)O)c4ccc1c2c34
38 % of max

Query: % Emission at 514 nm; subject: O=C(O)CCCc1ccc2ccc3cccc4ccc1c2c34
2 % of max

Query: % Emission at 514 nm; subject: Cc1c(CC(=O)O)c(=O)oc2cc(O)ccc12
20 % of max

Query: % Emission at 514 nm; subject: NNC(=O)COc1cc(S(=O)(=O)[O-])c2ccc3c(S(=O)(=O)[O-])cc(S(=O)(=O)[O-])c4ccc1c2c43.[Na+].[Na+].[Na+]
3.8 % of max

Query: % Emission at 514 nm; subject: Cc1c(CC(=O)O)c(=O)oc2cc(N)ccc12
12 % of max

* * *

Each entry below carries its reported Emission Band-width.
Assay: Spectral properties (absorption/emission) of new pyrenyloxy sulfonic acid dyes, Table 4
Type: physicochemical
Conditions: 50 mM aqueous potassium phosphate buffer at pH 8.0
Method: Stock solutions were prepared by accurately weighing and dissolving 5-10 mg samples of the compounds in 2.000 ml water. A 10 μl aliquot of the stock solution was diluted into 2.00 ml of 50 mM potassium phosphate buffer at pH 8.0. Absorbance solutions were prepared by further diluting 200 μl of the diluted stock solution to 2.000 ml with 50 mM potassium phosphate buffer at pH 8.0. […]
Structures can show the parent of a compound that is named as a salt.
# value in nm; strip the unit string

Below, each entry is followed by its recorded Emission Band-width result.
compound | unit-of-measurement | Emission Band-width
[N-]=[N+]=Nc1ccc(C(=O)NCCCCCNC(=O)COc2cc(S(=O)(=O)[O-])c3ccc4c(S(=O)(=O)[O-])cc(S(=O)(=O)[O-])c5ccc2c3c54)cc1.[Na+].[Na+].[Na+] [Compound 20] | nm | 50
O=C(O)COc1cc(S(=O)(=O)[O-])c2ccc3c(S(=O)(=O)[O-])cc(S(=O)(=O)[O-])c4ccc1c2c43.[Na+].[Na+].[Na+] [Compound 2] | nm | 52
CC(C)(C)OC(=O)N1CCC[C@H]1C(=O)NCCNC(=O)COc1cc(S(=O)(=O)[O-])c2ccc3c(S(=O)(=O)[O-])cc(S(=O)(=O)[O-])c4ccc1c2c43.[Na+].[Na+].[Na+] [Compound 14] | nm | 49
C=CC(=O)NCCCCCNC(=O)COc1cc(S(=O)(=O)O)c2ccc3c(S(=O)(=O)O)cc(S(=O)(=O)O)c4ccc1c2c43 [Compound 19] | nm | 49
NCCNC(=O)COc1cc(S(=O)(=O)O)c2ccc3c(S(=O)(=O)O)cc(S(=O)(=O)O)c4ccc1c2c43 [Compound 3, trisodium salt] | nm | 50

Query: Emission Band-width; subject: N#CCCCCCNC(=O)COc1cc(S(=O)(=O)O)c2ccc3c(S(=O)(=O)O)cc(S(=O)(=O)O)c4ccc1c2c43 [Compound 16]
49

Query: Emission Band-width; subject: NNC(=O)COc1cc(S(=O)(=O)[O-])c2ccc3c(S(=O)(=O)[O-])cc(S(=O)(=O)[O-])c4ccc1c2c43.[Na+].[Na+].[Na+] [Compound 12]
50

Query: Emission Band-width; subject: O=C(COc1cc(S(=O)(=O)O)c2ccc3c(S(=O)(=O)O)cc(S(=O)(=O)O)c4ccc1c2c43)NCCO [Compound 10]
50

Query: Emission Band-width; subject: NCCCCCNC(=O)COc1cc(S(=O)(=O)O)c2ccc3c(S(=O)(=O)O)cc(S(=O)(=O)O)c4ccc1c2c43 [Compound 4, trisodium salt]
50

Query: Emission Band-width; subject: NNC(=O)COc1cc(S(=O)(=O)O)c2ccc3c(S(=O)(=O)O)cc(S(=O)(=O)O)c4ccc1c2c43 [Compound 11]
51

Query: Emission Band-width; subject: CC(C)(C)OC(=O)N1CCC[C@H]1C(=O)NCCCCCNC(=O)COc1cc(S(=O)(=O)O)c2ccc3c(S(=O)(=O)O)cc(S(=O)(=O)O)c4ccc1c2c43 [Compound 15]
50

Query: Emission Band-width; subject: N.N.N.NNC(=O)COc1cc(S(=O)(=O)O)c2ccc3c(S(=O)(=O)O)cc(S(=O)(=O)O)c4ccc1c2c43 [Compound 13]
50

Query: Emission Band-width; subject: COC(=O)COc1cc(OCC(=O)OC)c2ccc3c(S(=O)(=O)O)cc(S(=O)(=O)O)c4ccc1c2c43 [Compound 21, disodium salt]
55
